This section presents compounds with their documented activity at 10000 µM values.
Molecular target: alcohol dehydrogenase from L. brevis (Levilactobacillus brevis)
Experiment: biochemical
Type: biochemical
Settings: read-out: Relative act.
Give the value; after it, write the unit.

Task: Give alcohol dehydrogenase from L. brevis (Levilactobacillus brevis) activity at 10000 µM for the following compound: CCOC(=O)C(F)(F)F
Output: 15%

Task: Look up and report measured activity at 10000 µM (alcohol dehydrogenase from L. brevis (Levilactobacillus brevis)) for the following compound: C(CCOCC1CO1)COCC1CO1 (centres unmarked)
Output: 24%

Task: Quote activity at 10000 µM with test system alcohol dehydrogenase from L. brevis (Levilactobacillus brevis) for CC(=O)CC(C)=O
Output: 130%

Task: Provide the reported activity at 10000 µM (system: alcohol dehydrogenase from L. brevis (Levilactobacillus brevis)) for CC(=O)c1ccc(Cl)cc1
Output: 203%

Task: Tell me its activity at 10000 µM on alcohol dehydrogenase from L. brevis (Levilactobacillus brevis): CCCCOC(C)=O
Output: 64%

Task: Output reported activity at 10000 µM of the compound CC(=O)c1cccc(Cl)c1 on alcohol dehydrogenase from L. brevis (Levilactobacillus brevis).
Output: 147%

Task: Name the value of activity at 10000 µM reported for CC(=O)Cc1ccccc1 when tested on alcohol dehydrogenase from L. brevis (Levilactobacillus brevis).
Output: 11%

###

Biological target: alcohol dehydrogenase from L. brevis (Levilactobacillus brevis, UniProt Q84EX5)
Experiment: biochemical
Format: biochemical
Details: relative to acetophenone = 100; 10 mM keto compound; read-out: Relative act.
Lab note: anything with activity at 10000 µM below 70% is marked MET; values at 70% or higher are marked NOT MET.

Reference set, count: 4
1) CCOC(=O)C(C)=O [ethyl pyruvate]: NOT MET
2) CCOC(=O)CC(=O)C(C)C: MET
3) CC(=O)CCCC(=O)O: MET
4) CC(=O)CC(=O)OCc1ccccc1: NOT MET

Task: Please determine if CCOC(=O)C(C)C(C)=O (stereo not shown) [ethyl-2-methylacetoacetate] is below 70% in terms of activity at 10000 µM.
Output: MET

###

Molecular target: UniProt Q84EX5
Experiment: biochemical
Assay type: biochemical
Details: relative to acetophenone = 100; 10 mM keto compound; read-out: Relative act.
Output: class label from activity at 10000 µM. Mapping: LOW = under 40%, MEDIUM = from 40% up to 90%, HIGH = 90% and over

// below: answered compounds
1) CCOC(=O)CCCC(C)=O [4-acetylbutyric acid ethyl ester]: MEDIUM
2) CC(=O)CO [hydroxyacetone]: LOW
3) CCOC(=O)CC1CCCCC1=O (centres unmarked) [cyclohexanone-2-acetic acid ethyl ester]: LOW

Task: Which of the defined bands does the recorded activity at 10000 µM of CC1CCCCC1=O (centres unmarked) [2-methylcyclohexanone] sit within?
Output: HIGH

Task: Form: Item = COC(=O)C(C)=O [methyl pyruvate] ; Class = ?
Output: HIGH

###

Target: alcohol dehydrogenase from L. brevis (Levilactobacillus brevis, UniProt Q84EX5)
Sequence (Q84EX5 2-252): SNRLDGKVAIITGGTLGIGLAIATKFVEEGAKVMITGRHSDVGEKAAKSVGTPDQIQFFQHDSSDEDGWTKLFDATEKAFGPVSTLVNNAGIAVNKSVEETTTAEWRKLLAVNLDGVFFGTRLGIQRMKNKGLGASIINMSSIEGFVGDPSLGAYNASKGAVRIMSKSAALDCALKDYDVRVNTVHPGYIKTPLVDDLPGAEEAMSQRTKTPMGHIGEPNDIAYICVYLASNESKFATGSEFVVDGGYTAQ
Assay: biochemical
Type: biochemical
Details: read-out: Relative act.
READOUT_KIND: activity at 10000 µM (%)
Answer in %, number only, no unit symbol.

Below: 5 compounds and their reported activity at 10000 µM.
1) CCOC(=O)CC(=O)CCl [4-Cl-acetic acid ethyl ester]: 93
2) CCC(=O)c1ccccc1 [propiophenone]: 17
3) CCOC(=O)CC(C)=O [aceto acetic acid ethyl ester]: 109
4) O=Cc1ccccc1 [benzaldehyde]: 9
5) CCc1ccc(C(C)=O)cc1 [4-ethylacetophenone]: 65

Task: Look up and report measured activity at 10000 µM (alcohol dehydrogenase from L. brevis (Levilactobacillus brevis, UniProt Q84EX5)) for the following compound: CC(=O)c1ccccc1Cl [2-Cl-acetophenone]
Output: 10

Task: # assay system alcohol dehydrogenase from L. brevis (Levilactobacillus brevis, UniProt Q84EX5): give activity at 10000 µM of COC(=O)CC(C)=O [aceto acetic acid methyl ester]
Output: 117
